Assignment: determine reported TGI for the given molecules.
tested on: M14 melanoma; assay: NCI tumour cell line growth inhibition, 48 h

Note TGI for the molecule shown: CC1CSC(=S)N1C(=O)N1C(=S)SCC1C (stereo unspecified) 53.9 µM

Note TGI for the molecule shown: CC1(C)SC2C(NC(=O)C(C(=O)O)c3ccccc3)C(=O)N2C1C(=O)O (stereo unspecified) > 100 µM

Note TGI for the molecule shown: COC(=O)c1cc(-c2ccc(OC)c(OC)c2)oc1-c1ccc(OC)c(OC)c1 > 100 µM

Note TGI for the molecule shown: CCOC(=O)NC1C2CC(=O)C(O2)C1OCc1ccccc1 (stereo unspecified) > 100 µM

Note TGI for the molecule shown: OC1CCN(c2c3ccccc3nc3ccccc23)CC1 > 100 µM

Note TGI for the molecule shown: O=CNCCCN1CCN(CCCNC=O)CC1 > 100 µM

* * *

system: SF-295 CNS; experiment: NCI tumour cell line growth inhibition, 48 h
Measured property: TGI (µM)
Value expressed in µM; do not type the unit.

Report its TGI with SF-295 CNS as the test system: COc1ccc(/C=C(\C#N)c2nc3ccccc3c(=O)[nH]2)cc1 52.2

Report its TGI with SF-295 CNS as the test system: Clc1ccc(CCC(Cn2ccnc2)Sc2c(Cl)cccc2Cl)cc1 (stereo unspecified) 11.9

Report its TGI with SF-295 CNS as the test system: C=C(C)C(=O)Oc1ccc(N=Nc2ccc(C)cc2)ccc1=O 4.66

Report its TGI with SF-295 CNS as the test system: CS(=O)(=O)N1CC(CI)c2ccc(O)cc21 (stereo unspecified) 13.4

Report its TGI with SF-295 CNS as the test system: COC1=CC(c2ccc[nH]2)=N/C1=C\c1[nH]c(C)c(C(=O)CCCCC(=O)NCc2ccccc2)c1C 7.23

* * *

tested on: EKVX NSCLC; assay: NCI tumour cell line growth inhibition, 48 h; in the data active = GI50 below about 0.43 µM; inactive = the rest
Your reply should match one of these outcome classes. 1 (yes) (active), 0 (no) (inactive)

I would be grateful if you could indicate the recorded call for COc1ccc2nc(NNC(=O)c3cnccn3)c3cccn3c2c1 . 1 (yes)

I would be grateful if you could indicate the recorded call for NS(=O)(=O)N(c1cc(C(F)(F)F)cc(C(F)(F)F)c1)C1CCN(Cc2ccc(F)cc2)CC1 . 0 (no)

I would be grateful if you could indicate the recorded call for CCCCNCC(O)c1cc2c(Cl)cc(Cl)cc2c2cc(C(F)(F)F)ccc12 (stereo not drawn) . 0 (no)

I would be grateful if you could indicate the recorded call for Cc1cc2c([nH]1)CSc1cc(S(=O)(=O)c3ccccc3)c(=O)[nH]c1-2 . 0 (no)

I would be grateful if you could indicate the recorded call for O=C(CCl)Nc1ccc2c(c1)C(=O)c1ccccc1C2=O . 0 (no)

I would be grateful if you could indicate the recorded call for COc1cc(-c2nc3ccccc3s2)ccc1OCCCCCOc1cc2c(cc1OC)C(=O)N1CCC[C@H]1C=N2 . 1 (yes)

I would be grateful if you could indicate the recorded call for Cc1cccc2c(C(=O)O[C@H](C(N)=O)[C@]3(C)CO3)cccc12 . 0 (no)

I would be grateful if you could indicate the recorded call for Cn1cc(-c2nc3c(F)cc4[nH]ncc4c3c3c2CCCC3)c(C(F)(F)F)n1 . 0 (no)

* * *

Assignment: determine reported TGI for the given molecules.
test system: SW-620 colon; test: NCI tumour cell line growth inhibition, 48 h

Note TGI for the molecule shown: CC(=O)OCC1OC(Sc2nc(-c3ccc(Cl)cc3)c(C#N)c(=O)n2C2OC(COC(C)=O)C(OC(C)=O)C(OC(C)=O)C2OC(C)=O)C(OC(C)=O)C(OC(C)=O)C1OC(C)=O (stereo not given) > 100 µM

Note TGI for the molecule shown: CCOC(=O)/C=C(\C(=O)OCC)n1ccc(=O)n(Cc2cnnn2COCCOC(C)=O)c1=O 5.93 µM

Note TGI for the molecule shown: Cc1cccc2c(C(=O)O[C@H](C(N)=O)[C@]3(C)CO3)cccc12 > 79.9 µM

Note TGI for the molecule shown: N#CCN1c2ccccc2CCC1Cl (stereo not given) > 10 µM

Note TGI for the molecule shown: C/C(=N\NC(=O)Nc1ccccc1Cl)c1ccc(O)cc1 > 100 µM

Note TGI for the molecule shown: C=CCNC(=O)N1CC(C)C(=O)Nc2ccccc21 (stereo not given) > 100 µM

Note TGI for the molecule shown: O=C(O)CC(O)(c1ccccc1C(=O)O)c1cccc2ccccc12 (stereo not given) > 100 µM

Note TGI for the molecule shown: COc1cc2oc3c(c(=O)c2c(O)c1/C=C/C(C)C)CCC(C)(C)Oc1cc(O)ccc1-3 51.8 µM

Note TGI for the molecule shown: CCOC(=O)c1nc2cc(C(F)(F)F)ccc2nc1Nc1cc(OC)c(OC)c(OC)c1 > 100 µM

Note TGI for the molecule shown: O=c1c2ccccc2nc2n1CCc1c-2[nH]c2ccc(Br)cc12 > 100 µM

* * *

system: DMS 114 small cell lung; experiment: NCI tumour cell line growth inhibition, 48 h
Measured property: TGI

Report its TGI with DMS 114 small cell lung as the test system: O=C(OC1CC(n2cc(F)c(=O)[nH]c2=O)OC1CSC(=O)c1ccccc1)c1ccccc1 (stereo not drawn) > 100 µM

Report its TGI with DMS 114 small cell lung as the test system: Cn1c(=O)c2nc(N3CCOCC3)cnc2n(C)c1=O > 100 µM

Report its TGI with DMS 114 small cell lung as the test system: CC(=O)N1CCc2[nH]c3ccccc3c2CC1 > 100 µM

Report its TGI with DMS 114 small cell lung as the test system: [O-]c1ccccc1/C=N/c1nccs1.[O-]c1ccccc1/C=N/c1nccs1.[O]=[U+2]=[O] > 100 µM

Report its TGI with DMS 114 small cell lung as the test system: CN(C)Cc1cc(/C(=C(\C#N)c2ccccc2)c2ccc(O)cc2)ccc1O 29.4 µM

Report its TGI with DMS 114 small cell lung as the test system: O=c1[nH]cnc2c(COCCCO)c[nH]c12 > 100 µM

Report its TGI with DMS 114 small cell lung as the test system: C=Cc1ccccc1 (tested in a mixture with another compound) > 75 µg/mL

Report its TGI with DMS 114 small cell lung as the test system: COc1cc2c(c(OC)c1OC)-c1cccc(=O)cc1C(NC(C)=O)CC2 (stereo not drawn) 0.391 µM

* * *

test system: CAKI-1 renal; test: NCI tumour cell line growth inhibition, 48 h
Measured property: TGI

Note TGI for the molecule shown: Cc1cccc(NC(=O)/C=C/c2ccccc2)c1C > 100 µM

Note TGI for the molecule shown: COc1ccc(C2N(c3ccc(F)c([N+](=O)[O-])c3)C(=O)N3C(c4ccc(OC)cc4)N(c4ccc(F)c([N+](=O)[O-])c4)C(=O)N23)cc1 (stereo unspecified) > 100 µM

Note TGI for the molecule shown: COc1ccc(-c2cc(-c3ccccc3)nc(/N=C\c3ccccc3)n2)c(O)c1 8.39 µM

Note TGI for the molecule shown: COc1cccc(C2c3cc4c(cc3OC(NNc3ccccc3)C2C)OCO4)c1O (stereo unspecified) 23.3 µM

Note TGI for the molecule shown: CCOC(=O)NC(Nc1ncn(C(NC(=O)OCC)(C(F)(F)F)C(F)(F)F)n1)(C(F)(F)F)C(F)(F)F > 100 µM

Note TGI for the molecule shown: CC(=O)c1nc2ccccc2n1CCN1CCN(C)CC1 > 100 µM

Note TGI for the molecule shown: CCOC(=O)c1nc2cc(C(F)(F)F)ccc2nc1Nc1cc(OC)c(OC)c(OC)c1 > 100 µM

Note TGI for the molecule shown: Cc1ccc(NC(=O)OCC(COc2ccc(Cl)cc2)OC(=O)Nc2ccc(C)cc2)cc1 (stereo unspecified) 57 µM

Note TGI for the molecule shown: O=C(O)CN1CCNCCNCC1 > 100 µM

Note TGI for the molecule shown: Cn1cc(-c2nc3c(F)cc4[nH]ncc4c3c3c2CCCC3)c(C(F)(F)F)n1 > 100 µM

Note TGI for the molecule shown: CC(C)OC(=O)C1=C2c3ncccc3C(=O)N2[C@@H](Cl)[C@@H](Cl)[C@@H]1Cl > 100 µM

Note TGI for the molecule shown: CNc1ccc(C(=O)CC(O)CCC(C)C2OC(=O)CC(O)CC(=O)CC(O)CC(O)CC(O)CC(O)CC3(O)CC(O)C(C(=O)NCCN(C)C)C(CC(OC4OC(C)C(O)C(NC(=O)CN5CCN(CCO)CC5)C4O)/C=C/C=C/C=C/C=C\C=C/C=C/C=C/C2C)O3)cc1 (stereo unspecified) > 18.7 µM

Note TGI for the molecule shown: COc1cc(-c2nc3ccc(C)cc3[nH]2)ccc1OCC(=O)N=Nc1c(O)[nH]c2ccc(Cl)cc12 2.93 µM

Note TGI for the molecule shown: C/C(CCn1[nH]c(=O)ccc1=O)=N\N=C(N)N > 100 µM

Note TGI for the molecule shown: CN(C)Cc1cc(/C(=C(\C#N)c2ccccc2)c2ccc(O)cc2)ccc1O 85.5 µM

Note TGI for the molecule shown: ClCCC[Si]12OCCN(CCO1)CCO2 > 100 µM

Note TGI for the molecule shown: Cn1c(=O)c2nc(N3CCOCC3)cnc2n(C)c1=O > 100 µM

Note TGI for the molecule shown: COc1ccc(CCn2c3c(c4c(O)cccc42)C(=O)c2ccccc2-3)cc1OC > 96.5 µM

Note TGI for the molecule shown: COc1cc(Nc2cnc3cc(N)ccc3n2)cc(OC)c1OC > 100 µM

Note TGI for the molecule shown: O=S1CCN(Cc2ccc(-c3ccc4ncnc(Nc5ccc(OCc6cccc(F)c6)c(Cl)c5)c4c3)o2)CC1 > 25 µM

Note TGI for the molecule shown: COc1cc2c(c(OC)c1OC)-c1cccc(=O)cc1C(NC(C)=O)CC2 (stereo unspecified) > 100 µM

Note TGI for the molecule shown: N#CCCOc1cccc(C2(N3CCCCC3)CCCCC2)c1 > 100 µM

Note TGI for the molecule shown: C/C(=N\O)c1ccc2cc(Br)c3ccccc3c2c1 > 100 µM

Note TGI for the molecule shown: Cn1ncc2c(Sc3ccc(Cl)cc3)ncnc21 > 100 µM

Note TGI for the molecule shown: COc1cc(C(=O)/C=C/c2ccc(OCCCCCC[P+](c3ccccc3)(c3ccccc3)c3ccccc3)cc2)cc(OC)c1OC 2.99 µM

Note TGI for the molecule shown: COc1ccccc1N1C(=O)/C(=C\c2cc(OC)c(OC)c(OC)c2)SC1c1ccccc1 (stereo unspecified) > 100 µM

Note TGI for the molecule shown: Oc1ccc(-c2nn3c(CCCCCCCCc4nnc5sc(-c6ccc(O)cc6)nn45)nnc3s2)cc1 > 100 µM

Note TGI for the molecule shown: O=C(Oc1cccc2cccnc12)c1cc2cc(CCl)ccc2oc1=O 85.5 µM

Note TGI for the molecule shown: C=CCNC(=O)N1CC(C)C(=O)Nc2ccccc21 (stereo unspecified) > 100 µM

Note TGI for the molecule shown: O=C(O)CC(O)(c1ccccc1C(=O)O)c1cccc2ccccc12 (stereo unspecified) > 100 µM

Note TGI for the molecule shown: NC1(C(=O)O)CCCC1C(=O)O (stereo unspecified) > 100 µM

Note TGI for the molecule shown: O=P(O)(O)C(NCC(O)CN1CCOCC1)P(=O)(O)O (stereo unspecified) > 100 µM

Note TGI for the molecule shown: COc1ccc(C2CC(c3cc(Cl)c(C)cc3O)=NN2c2ccc(S(N)(=O)=O)cc2)cc1OC (stereo unspecified) > 100 µM

Note TGI for the molecule shown: Nc1cc2c([nH]c[n+]2CC#CCCl)c(SCC#CCCl)n1 1.36 µM

Note TGI for the molecule shown: CCCCNCC(O)c1cc2c(Cl)cc(Cl)cc2c2cc(C(F)(F)F)ccc12 (stereo unspecified) 3.44 µM

Note TGI for the molecule shown: COc1ccc2c(c1)[n+]([O-])c(-c1c(Cl)cccc1Cl)c(N)[n+]2[O-] > 100 µM

Note TGI for the molecule shown: CC(C)CC(C(N)=O)C(=O)NC(Cc1ccccc1)NC(=O)CNC(=O)C(C)NC(=O)C(N)Cc1ccc(O)cc1 (stereo unspecified) > 100 µM

Note TGI for the molecule shown: CN(C)CCNC(=O)c1ccc(Cl)c2ccc(-c3ccccc3)nc12 12.9 µM

Note TGI for the molecule shown: CCOC(=O)NC1C2CC(=O)C(O2)C1OCc1ccccc1 (stereo unspecified) > 100 µM

Note TGI for the molecule shown: COC(=O)CCCC(=O)NC1=C(Nc2ccc(OC)cc2)C(=O)c2ccccc2C1=O > 100 µM

Note TGI for the molecule shown: CC(=O)OC1COC(N2CCc3ccccc32)C(OC(C)=O)C1OC(C)=O (stereo unspecified) > 100 µM

# credit: PubChem BioAssay (NCI)
